All figures here come from ChEMBL document CHEMBL4823315.

experiment: Half life in CD-1 mouse at 5 mg/kg, po or 5 mg/kg, iv; format: ADME, organism-based; conditions: in vivo

{"compound-structure-string": "NC(=O)c1c(N)ncnc1N1CCC(c2nc(-c3ccc(F)c(C(F)(F)F)c3)cn2CCN2CCC2)CC1", "half-life / h": 9.3}

###

assay: Inhibition of Akt/p70S6K in human MDA-MB-436 cells assessed as inhibition of S6 phosphorylation; type: cell-based
pIC50: −log10 of the molar value.
parameter: pIC50

{"compound": "Cn1cc(-c2ccc(F)c(C(F)(F)F)c2)nc1C1CCN(c2ncnc(N)c2-c2cncnc2)CC1", "parameter": "pIC50", "quantitative-readout": 6.15}
{"compound": "Cn1cc(-c2ccc(F)c(C(F)(F)F)c2)nc1C1CCN(c2ncnc(N)c2C#N)CC1", "parameter": "pIC50", "quantitative-readout": 6.52}
{"compound": "NCC(c1ccc(F)c(C(F)(F)F)c1)N1CCN(c2ncnc(N)c2-c2ccc(F)cc2)CC1 (configuration not stated)", "parameter": "pIC50", "quantitative-readout": 5.54}
{"compound": "Cn1cc(-c2ccc(F)c(C(F)(F)F)c2)nc1C1CCN(c2ncnc(N)c2-c2ccc(F)cc2)CC1", "parameter": "pIC50", "quantitative-readout": 7.40}
{"compound": "CN(C)CC(c1ccc(C(F)(F)F)cc1)N1CCN(c2ncnc(N)c2-c2ccc(F)cc2)CC1 (configuration not stated)", "parameter": "pIC50", "quantitative-readout": 5.92}
{"compound": "Cn1cc(-c2ccc(F)c(C(F)(F)F)c2)nc1C1CCN(c2ncnc(N)c2-c2cccc(F)c2)CC1", "parameter": "pIC50", "quantitative-readout": 6.40}
{"compound": "NCC(c1ccccc1)N1CCN(c2ncnc(N)c2-c2ccc(F)cc2)CC1 (configuration not stated)", "parameter": "pIC50", "quantitative-readout": 5.59}
{"compound": "CN(C)CCn1cc(-c2ccc(F)c(C(F)(F)F)c2)nc1C1CCN(c2ncnc(N)c2C(N)=O)CC1", "parameter": "pIC50", "quantitative-readout": 4.05}
{"compound": "NCC(c1ccc(C(F)(F)F)cc1)N1CCN(c2ncnc(N)c2-c2ccc(F)cc2)CC1 (configuration not stated)", "parameter": "pIC50", "quantitative-readout": 6.40}
{"compound": "CN(C)CCn1cc(-c2ccc(F)c(C(F)(F)F)c2)nc1C1CCN(c2ncnc(N)c2C#N)CC1", "parameter": "pIC50", "quantitative-readout": 4.26}
{"compound": "Cn1cc(-c2ccc(F)c(C(F)(F)F)c2)nc1C1CCN(c2cc(N)ncn2)CC1", "parameter": "pIC50", "quantitative-readout": 4.66}
{"compound": "Nc1ncnc(N2CCC(c3nc(-c4ccc(F)c(C(F)(F)F)c4)cn3CCN3CCC3)CC2)c1Cl", "parameter": "pIC50", "quantitative-readout": 4.19}
{"compound": "Cn1cc(-c2ccc(F)c(C(F)(F)F)c2)nc1C1CCN(c2ncnc(N)c2-c2ccccc2F)CC1", "parameter": "pIC50", "quantitative-readout": 6.10}
{"compound": "Cc1ncc(-c2c(N)ncnc2N2CCC(c3nc(-c4ccc(F)c(C(F)(F)F)c4)cn3C)CC2)s1", "parameter": "pIC50", "quantitative-readout": 6.22}
{"compound": "Nc1ncnc(N2CCN(C(CN3CCC3)c3ccc(C(F)(F)F)cc3)CC2)c1-c1ccc(F)cc1 (configuration not stated)", "parameter": "pIC50", "quantitative-readout": 5.82}
{"compound": "Cn1cc(-c2ccc(F)c(C(F)(F)F)c2)nc1C1CCN(c2ncnc(N)c2-c2ccncc2)CC1", "parameter": "pIC50", "quantitative-readout": 6.40}
{"compound": "N#Cc1c(N)ncnc1N1CCC(c2nc(-c3ccc(F)c(C(F)(F)F)c3)cn2CCN2CCC2)CC1", "parameter": "pIC50", "quantitative-readout": 4.28}

###

assay: Oral bioavailability in Beagle dog at 0.5 mg/kg; assay type: ADME, organism-based, Canis lupus familiaris; conditions: in vivo

{"compound-structure-string": "NC(=O)c1c(N)ncnc1N1CCC(c2nc(-c3ccc(F)c(C(F)(F)F)c3)cn2CCN2CCC2)CC1", "quantity-unit": "%", "bioavailability": 65}

###

target: UniProt P10635
Sequence (P10635 whole entry): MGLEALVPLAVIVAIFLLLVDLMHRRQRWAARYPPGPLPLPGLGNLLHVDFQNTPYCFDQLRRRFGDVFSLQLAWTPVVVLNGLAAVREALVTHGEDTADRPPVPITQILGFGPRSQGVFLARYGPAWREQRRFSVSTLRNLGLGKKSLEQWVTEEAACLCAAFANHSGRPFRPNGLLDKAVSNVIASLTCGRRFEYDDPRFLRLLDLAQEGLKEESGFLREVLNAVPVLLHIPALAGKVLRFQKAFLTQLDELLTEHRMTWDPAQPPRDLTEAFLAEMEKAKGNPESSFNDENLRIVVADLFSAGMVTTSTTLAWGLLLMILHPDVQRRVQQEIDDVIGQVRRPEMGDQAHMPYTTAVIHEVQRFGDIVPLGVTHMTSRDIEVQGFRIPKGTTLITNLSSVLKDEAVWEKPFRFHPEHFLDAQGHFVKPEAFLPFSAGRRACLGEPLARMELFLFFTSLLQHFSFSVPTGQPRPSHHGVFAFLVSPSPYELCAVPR

{"compound-structure-string": "NC(=O)c1c(N)ncnc1N1CCC(c2nc(-c3ccc(F)c(C(F)(F)F)c3)cn2CCN2CCC2)CC1", "IC50": "> 20 µM"}

###

test: Protein binding in mouse plasma assessed as unbound fraction; format: ADME, cell-free
Reported fraction unbound values are given for each entry in this list.
parameter: fraction unbound

{"compound-structure-string": "NC(=O)c1c(N)ncnc1N1CCC(c2nc(-c3ccc(F)c(C(F)(F)F)c3)cn2CCN2CCC2)CC1", "quantitative-readout": 0.21}
{"compound-structure-string": "Cn1cc(-c2ccc(F)c(C(F)(F)F)c2)nc1C1CCN(c2ncnc(N)c2-c2ccc(F)cc2)CC1", "quantitative-readout": 0.0003}

###

assay: AUC in cynomolgus monkey at 0.5 mg/kg, po; assay type: ADME, organism-based, Macaca fascicularis; set-up: dose 0.5 mg/kg; settings: in vivo

{"compound-structure-string": "NC(=O)c1c(N)ncnc1N1CCC(c2nc(-c3ccc(F)c(C(F)(F)F)c3)cn2CCN2CCC2)CC1", "quantity-unit": "ng·h/mL", "AUC": 82}

###

test: Half life in CD-1 mouse at 0.5 mg/kg, po or 0.2 mg/kg, iv; format: ADME, organism-based; details: in vivo

{"compound-structure-string": "Cn1cc(-c2ccc(F)c(C(F)(F)F)c2)nc1C1CCN(c2ncnc(N)c2-c2ccc(F)cc2)CC1", "quantity-unit": "h", "half-life": 4.68}

###

Reported efflux ratio values are given for each entry in this list.
assay: Efflux ratio of apparent permeability in human Caco-2 cells; type: ADME, cell-based

{"compound-structure-string": "Cn1cc(-c2ccc(F)c(C(F)(F)F)c2)nc1C1CCN(c2ncnc(N)c2-c2ccc(F)cc2)CC1", "efflux ratio": 1.3}
{"compound-structure-string": "NC(=O)c1c(N)ncnc1N1CCC(c2nc(-c3ccc(F)c(C(F)(F)F)c3)cn2CCN2CCC2)CC1", "efflux ratio": 7.9}

###

biological target: Voltage-gated inwardly rectifying potassium channel KCNH2 (Homo sapiens, UniProt Q12809); assay: Inhibition of human ERG by patch clamp assay
Sequence (Q12809 whole entry): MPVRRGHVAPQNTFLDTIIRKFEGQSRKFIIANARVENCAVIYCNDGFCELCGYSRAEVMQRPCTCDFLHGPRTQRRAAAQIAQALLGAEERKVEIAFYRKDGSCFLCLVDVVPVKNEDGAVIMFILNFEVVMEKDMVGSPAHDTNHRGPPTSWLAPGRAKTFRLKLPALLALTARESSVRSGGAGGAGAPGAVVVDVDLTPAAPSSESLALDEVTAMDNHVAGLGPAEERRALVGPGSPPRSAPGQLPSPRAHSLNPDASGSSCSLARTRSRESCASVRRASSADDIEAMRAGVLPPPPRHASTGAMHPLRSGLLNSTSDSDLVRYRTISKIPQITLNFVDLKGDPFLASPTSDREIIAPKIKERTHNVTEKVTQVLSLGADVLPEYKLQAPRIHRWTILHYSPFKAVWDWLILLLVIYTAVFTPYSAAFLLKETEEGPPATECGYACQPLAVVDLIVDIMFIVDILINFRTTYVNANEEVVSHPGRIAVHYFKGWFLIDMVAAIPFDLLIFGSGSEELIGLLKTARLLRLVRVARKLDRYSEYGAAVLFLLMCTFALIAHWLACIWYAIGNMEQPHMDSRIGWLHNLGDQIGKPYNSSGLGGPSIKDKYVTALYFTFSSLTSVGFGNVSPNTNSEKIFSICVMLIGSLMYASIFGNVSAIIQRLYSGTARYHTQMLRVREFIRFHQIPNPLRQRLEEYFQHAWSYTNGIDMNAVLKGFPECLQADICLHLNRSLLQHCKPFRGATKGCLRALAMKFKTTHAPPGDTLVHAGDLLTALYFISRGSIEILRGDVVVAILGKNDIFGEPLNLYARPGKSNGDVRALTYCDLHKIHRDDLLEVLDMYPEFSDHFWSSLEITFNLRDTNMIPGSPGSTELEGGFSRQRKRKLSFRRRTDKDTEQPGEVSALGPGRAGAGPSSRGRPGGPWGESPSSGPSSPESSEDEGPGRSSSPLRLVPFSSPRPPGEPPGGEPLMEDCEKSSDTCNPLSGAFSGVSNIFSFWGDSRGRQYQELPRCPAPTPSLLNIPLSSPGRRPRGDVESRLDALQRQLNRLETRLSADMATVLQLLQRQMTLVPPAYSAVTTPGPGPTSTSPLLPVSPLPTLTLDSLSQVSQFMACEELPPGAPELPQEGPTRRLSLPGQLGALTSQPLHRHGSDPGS
pIC50: −log10 of the molar value.
Reported pIC50 values are given for each entry in this list.
parameter: pIC50

{"compound-structure-string": "Nc1ncnc(N2CCC(c3nc(-c4ccc(F)c(C(F)(F)F)c4)cn3CCN3CCC3)CC2)c1Cl", "parameter": "pIC50", "quantitative-readout": 5.72}
{"compound-structure-string": "CN(C)CCn1cc(-c2ccc(F)c(C(F)(F)F)c2)nc1C1CCN(c2ncnc(N)c2-c2ccc(F)cc2)CC1", "parameter": "pIC50", "quantitative-readout": 5.92}
{"compound-structure-string": "CN(C)CCn1cc(-c2ccc(F)c(C(F)(F)F)c2)nc1C1CCN(c2ncnc(N)c2C2CC2)CC1", "parameter": "pIC50", "quantitative-readout": 6.08}
{"compound-structure-string": "CN(C)CCn1cc(-c2ccc(F)c(C(F)(F)F)c2)nc1C1CCN(c2ncnc(N)c2C#N)CC1", "parameter": "pIC50", "quantitative-readout": 5.80}
{"compound-structure-string": "Nc1ncnc(N2CCC(c3nc(-c4ccc(F)c(C(F)(F)F)c4)cn3CCN3CCC3)CC2)c1-c1ccc(F)cc1", "parameter": "pIC50", "quantitative-readout": 5.89}
{"compound-structure-string": "CC(C)c1c(N)ncnc1N1CCC(c2nc(-c3ccc(F)c(C(F)(F)F)c3)cn2CCN2CCC2)CC1", "parameter": "pIC50", "quantitative-readout": 5.74}
{"compound-structure-string": "Cn1cc(-c2ccc(F)c(C(F)(F)F)c2)nc1C1CCN(c2ncnc(N)c2C(N)=O)CC1", "parameter": "pIC50", "quantitative-readout": 5.72}
{"compound-structure-string": "C=Cc1c(N)ncnc1N1CCC(c2nc(-c3ccc(F)c(C(F)(F)F)c3)cn2CCN(C)C)CC1", "parameter": "pIC50", "quantitative-readout": 5.96}

###

test: Cmax in cynomolgus monkey at 0.5 mg/kg, po; type: ADME, organism-based, Macaca fascicularis; set-up: route oral, dose 0.5 mg/kg; details: in vivo

{"compound-structure-string": "NC(=O)c1c(N)ncnc1N1CCC(c2nc(-c3ccc(F)c(C(F)(F)F)c3)cn2CCN2CCC2)CC1", "Cmax": "9.7 ng/mL"}

###

Reported solubility thermodynamic values are given for each entry in this list.
assay: Thermodynamic solubility of the compound at pH 1.2; assay type: physicochemical; settings: buffer, read-out: Therm_solubility

{"compound-structure-string": "NC(=O)c1c(N)ncnc1N1CCC(c2nc(-c3ccc(F)c(C(F)(F)F)c3)cn2CCN2CCC2)CC1", "censoring-sign": "=", "solubility thermodynamic [µg/mL]": 2960}
{"compound-structure-string": "Cn1cc(-c2ccc(F)c(C(F)(F)F)c2)nc1C1CCN(c2ncnc(N)c2-c2ccc(F)cc2)CC1", "censoring-sign": "<", "solubility thermodynamic [µg/mL]": 1}
